Test system: A549
Test summary: Cytotoxicity against human A549 cells assessed as cell viability after 48 hrs by SRB assay
Assay type: functional, cell-based
Condition notes: A549, 48 h
Overview of recorded IC50 for various compounds

{"columns": ["Compound", "IC50, nM"],
 "data": [
  ["COc1ccc2c3c(c4cc(OC)c(OC)cc4c2c1)C[C@H]1C[C@H](O)CCN1C3", 9],
  ["COc1ccc2c3c(c4cc(OC)c(OC)cc4c2c1)C[C@H]1CCCCN1C3 [CRYPTOPLEURINE]", 1.9],
  ["COc1ccc2c3c(c4cc(OC)c(OC)cc4c2c1)C[C@H]1COCCN1C3", 40]
]}

Attribution: ChEMBL document CHEMBL2163271
